Origin of measurements: patent US12522597B2

# Tested on: mHTT protein
# Protocol Notes: mHTT protein assay (2B7-MW1, Mesoscale Discovery)
# Format: cell-based, human
# Reported Conditions: GM04724 (CAG 70/20) Huntington's disease patient lymphoblast cells, 48 hours, 2B7-MW1 MSD; read-out: HTT Potency - Protein EC50 mHTT (average)
pEC50: −log10 of the molar value.
Exercise: for every item that follows, state its recorded pEC50.

Bench note: what pEC50 did Oc1cc(-c2ccnnc2)ccc1-c1ccc(O[C@H]2C[C@@H]3CCC[C@@H](N3)[C@H]2F)nn1 (single isomer, unassigned) [87-ENT2] show?
6.30 to 7.00

Same thing, different molecule: COc1cc(-c2ccc(-c3ccc(O[C@@H]4C[C@@]5(C)CC[C@](C)(N5)[C@@H]4F)nn3)c(O)c2)cnn1 (single isomer, unassigned) [157-ENT1]
7.30 to 7.80

Same thing, different molecule: C[C@@]12CC[C@@](C)(N1)[C@@H](F)[C@@H](Oc1ccc(-c3ccc(-n4cccn4)cc3O)nn1)C2 (single isomer, unassigned) [153-ENT2]
7.30 to 7.80

Same thing, different molecule: Cn1cc(-c2ccc(-c3ccc(O[C@H]4C[C@@H]5CCC[C@@H](N5)[C@H]4F)nn3)c(O)c2)oc1=O (single isomer, unassigned) [97-ENT2]
7.82 to 11.00

Same thing, different molecule: Oc1cc(-c2nncs2)ccc1-c1ccc(O[C@H]2C[C@@H]3CC[C@@H](N3)[C@H]2F)nn1 (single isomer, unassigned) [141-ENT1]
6.30 to 7.00

Now consider a different molecule.
Bench note: what pEC50 did Cn1cc(-c2ccc(-c3ccc(O[C@@H]4C[C@H]5CCC[C@H](N5)[C@@H]4F)nn3)c(O)c2)cn1 (single isomer, unassigned) [1-ENT1] show?
7.82 to 11.00

====

Exercise: for every item that follows, state its recorded Papp B→A at 120 min, 5 μM.
# System: MDR1
# Protocol Notes: MDCK-MDR1 permeability assay (BBB penetration potential)
# Format: in vitro ADME
# Reported Conditions: dog, MDCK-MDR1, pH 7.4, MDCK-MDR1: Papp B-A
Numbers only, in nm/s.

Bench note: what Papp B→A at 120 min, 5 μM did Oc1cc(-c2nncs2)ccc1-c1ccc(O[C@@H]2C[C@H]3CCC[C@H](N3)[C@@H]2F)nn1 (single isomer, unassigned) show?
592

Same thing, different molecule: Cn1cc(-c2ccc(-c3ccc(O[C@@H]4C[C@H]5CCC[C@H](N5)[C@@H]4F)nn3)c(O)c2)oc1=O (single isomer, unassigned)
504

State recorded Papp B→A at 120 min, 5 μM for all listed molecules.
1. Oc1cc(-c2cn[nH]c2)ccc1-c1ccc(O[C@@H]2C[C@H]3CC[C@H](N3)[C@H]2F)nn1 (single isomer, unassigned)
2. Cn1cc(-c2cc(O)c(-c3ccc(O[C@H]4C[C@@H]5CCC[C@@H](N5)[C@H]4F)nn3)cc2Cl)cn1 (single isomer, unassigned)

1: 587; 2: 302

State recorded Papp B→A at 120 min, 5 μM for all listed molecules.
1. Oc1cc(-c2nnco2)ccc1-c1ccc(O[C@H]2C[C@@H]3CC[C@@H](N3)[C@H]2F)nn1 (single isomer, unassigned)
2. Cc1nnc(-c2ccc(-c3ccc(O[C@H]4C[C@@H]5CCC[C@@H](N5)[C@H]4F)nn3)c(O)c2)s1 (single isomer, unassigned)

1. 433
2. 331

====

# System: MDR1-MDCK cell monolayers
# Protocol Notes: MDCK-MDR1 permeability assay (BBB penetration potential)
# Format: in vitro ADME
# Reported Conditions: dog, MDCK-MDR1, 120 min, 5 μM, pH 7.4
Exercise: for every item that follows, state its recorded MDCK-MDR1: % Recov B-A.
One number for each entry, in %.

Check out these entries, answers already filled in.
Bench note: what MDCK-MDR1: % Recov B-A did C[C@@]12CC[C@@](C)(N1)[C@@H](F)[C@@H](Oc1ccc(-c3ccc(C#N)cc3O)nn1)C2 (single isomer, unassigned) [152-ENT2] show?
100

Same thing, different compound: Cc1nc(-c2ccc(-c3ccc(O[C@H]4C[C@@H]5CCC[C@@H](N5)[C@H]4F)nn3)c(O)c2)cs1 (single isomer, unassigned) [71-ENT1]
60

Same thing, different compound: Oc1cc(-c2cn[nH]c2)ccc1-c1ccc(O[C@@H]2C[C@H]3CC[C@H](N3)[C@@H]2F)nn1 (single isomer, unassigned) [42-ENT2]
86

State recorded MDCK-MDR1: % Recov B-A for all listed compounds.
1. Cn1ccc(-c2cc(O)c(-c3ccc(O[C@@H]4C[C@H]5CCC[C@H](N5)[C@@H]4F)nn3)cc2F)cc1=O (single isomer, unassigned) [58-ENT1]
2. Oc1cc(-c2nnco2)c(F)cc1-c1ccc(O[C@@H]2C[C@H]3CCC[C@H](N3)[C@@H]2F)nn1 (single isomer, unassigned) [143-ENT2]
3. Oc1cc(-c2cn[nH]c2)ccc1-c1ccc(O[C@H]2C[C@@H]3CC(F)(F)[C@H](C2)N3)nn1 (single isomer, unassigned) [46-ENT1]
4. CNC(=O)c1ccc2cc(-c3ccc(O[C@H]4C[C@@H]5CCC[C@@H](N5)[C@H]4F)nn3)c(O)cc2n1 (single isomer, unassigned) [136-ENT1]

[103, 87, 88, 101]

State recorded MDCK-MDR1: % Recov B-A for all listed compounds.
1. Cn1cnc(-c2ccc(-c3ccc(O[C@H]4C[C@]5(C)CCC[C@@](C)(N5)[C@H]4F)nn3)c(O)c2)cc1=O (single isomer, unassigned) [139-ENT2]
2. Oc1cc(-c2cn[nH]c2)ccc1-c1ccc(O[C@@H]2C[C@H]3C[C@H](F)C[C@@H](C2)N3)nn1 [compound 113]
3. Cc1nocc1-c1ccc(-c2ccc(O[C@H]3C[C@@H]4CCC[C@@H](N4)[C@H]3F)nn2)c(O)c1 (single isomer, unassigned) [72-ENT1]
4. Cn1cc(-c2cc(O)c(-c3ccc(O[C@H]4C[C@@H]5CCC[C@@H](N5)[C@H]4F)nn3)cc2F)cn1 (single isomer, unassigned) [82-ENT2]
5. C[C@]12CCC[C@](C)(N1)[C@H](F)[C@H](Oc1ccc(-c3ccc(-c4cn[nH]c4)cc3O)nn1)C2 (single isomer, unassigned) [147-ENT2]

87
88
93
72
80

====

Exercise: for every item that follows, state its recorded MDCK-MDR1: % Recov B-A.
# System: MDR1-MDCK cell monolayers
# Protocol Notes: MDCK-MDR1 permeability assay (BBB penetration potential)
# Type: in vitro ADME
# Reported Conditions: dog, MDCK-MDR1, 120 min, 5 μM, pH 7.4
Give bare numbers, in %.

Check out these entries, answers already filled in.
Bench note: what MDCK-MDR1: % Recov B-A did Cc1nocc1-c1ccc(-c2ccc(O[C@H]3C[C@@H]4CCC[C@@H](N4)[C@H]3F)nn2)c(O)c1 (single isomer, unassigned) [72-ENT2] show?
74

Same thing, different compound: Oc1cc(-n2cccn2)ccc1-c1ccc(O[C@@H]2C[C@H]3CC[C@H](N3)[C@@H]2F)nn1 (single isomer, unassigned)
87

Same thing, different compound: Cc1ncc(-c2ccc(-c3ccc(O[C@@H]4C[C@H]5CCC[C@H](N5)[C@@H]4F)nn3)c(O)c2)s1 (single isomer, unassigned)
72

State recorded MDCK-MDR1: % Recov B-A for all listed compounds.
1. Oc1cc(-c2nncs2)ccc1-c1ccc(O[C@H]2C[C@@H]3CC[C@@H](N3)[C@H]2F)nn1 (single isomer, unassigned)
2. Oc1cc2nccnc2cc1-c1ccc(O[C@H]2C[C@@H]3CCC[C@@H](N3)[C@H]2F)nn1 (single isomer, unassigned)
3. C[C@]12CC[C@](C)(N1)[C@H](F)[C@H](Oc1ccc(-c3ccc(C#N)cc3O)nn1)C2 (single isomer, unassigned)

120
99
98

State recorded MDCK-MDR1: % Recov B-A for all listed compounds.
1. Cn1cc(-c2ccc(-c3ccc(O[C@@H]4C[C@H]5CCC[C@H](N5)[C@@H]4F)nn3)c(O)c2)cn1 (single isomer, unassigned)
2. Cn1ccc2cc(-c3ccc(O[C@H]4C[C@]5(C)CCC[C@@](C)(N5)[C@H]4F)nn3)c(O)cc2c1=O (single isomer, unassigned)
3. Cn1ccc2cc(-c3ccc(O[C@H]4C[C@]5(C)CC[C@@](C)(N5)[C@H]4F)nn3)c(O)cc2c1=O (single isomer, unassigned)
4. N#Cc1ccc(-c2ccc(O[C@H]3C[C@@H]4CCC[C@@H](N4)[C@H]3F)nn2)c(O)c1 (single isomer, unassigned)
5. O=c1cc(-c2cc(O)c(-c3ccc(O[C@@H]4C[C@H]5CCC[C@H](N5)[C@@H]4F)nn3)cc2F)cc[nH]1 (single isomer, unassigned)
6. Oc1cc2cnccc2cc1-c1ccc(O[C@@H]2C[C@H]3CCC[C@H](N3)[C@@H]2F)nn1 (single isomer, unassigned)

[84, 99, 70, 97, 101, 78]
